- Test Protocol: Plasma pharmacokinetics in A375 tumor-bearing nude mice
- Type: in vivo, mouse
- Condition: nude, mouse, plasma, po, 10 mg/kg
Observable: Tmax

[Q] Using the record for Cn1cnc2c(F)c(Nc3ccc(Br)cc3Cl)c(C(=O)NOCCO)cc21 [AZD6244] , report its Tmax.
[A] 2 h

* * *

- Test Protocol: Tissue and tumor distribution in A375 tumor-bearing nude mice
- Type: in vivo, mouse
- Condition: nude, mouse, liver, lung, kidney, gut, muscle, skin, tumor, po, 10 mg/kg
Observable: Tmax

[Q] Look at this compound and give its reported Tmax. Cn1cnc2c(F)c(Nc3ccc(Br)cc3Cl)c(C(=O)NOCCO)cc21 [AZD6244]
[A] 0.5 to 2 h

* * *

- Test Protocol: Tissue and tumor distribution in A375 tumor-bearing nude mice
- Format: in vivo, mouse
- Condition: nude, mouse, gut, po, 10 mg/kg, t1/2, gut, single dose
Observable: half-life

[Q] For Cn1cnc2c(F)c(Nc3ccc(Br)cc3Cl)c(C(=O)NOCCO)cc21 , what is its reported half-life?
[A] 1 h

* * *

- Test Protocol: Tissue and tumor distribution in A375 tumor-bearing nude mice
- Type: in vivo, mouse
- Condition: nude, mouse, gut, po, 10 mg/kg, Cmax, single dose
Observable: Cmax (ng/g)
Response body: numeric value in ng/g, unit text excluded.

[Q] Which Cmax is reported for this compound? Cn1cnc2c(F)c(Nc3ccc(Br)cc3Cl)c(C(=O)NOCCO)cc21
[A] 1930

* * *

- Test Protocol: Plasma pharmacokinetics in A375 tumor-bearing nude mice
- Assay type: in vivo, mouse
- Condition: nude, mouse, plasma, po, 5 mg/kg
Observable: Tmax (min)
Answer format: numeric, min implied, no suffix.

[Q] // Tmax lookup, key: Cn1cnc2c(F)c(Nc3ccc(Br)cc3Cl)c(C(=O)NOCCO)cc21 [AZD6244]
[A] 30

* * *

- Test Protocol: Tissue and tumor distribution in A375 tumor-bearing nude mice
- Type: in vivo, mouse
- Condition: nude, mouse, muscle, po, 10 mg/kg, Cmax, steady state
Observable: Cmax at 1 week (ng/g)
Field format: number, assumed ng/g, no unit text.

[Q] Can you share its Cmax at 1 week? I mean this compound: Cn1cnc2c(F)c(Nc3ccc(Br)cc3Cl)c(C(=O)NOCCO)cc21
[A] 2040

* * *

- Test Protocol: Plasma pharmacokinetics in A375 tumor-bearing nude mice
- Type: in vivo, mouse
- Condition: nude, mouse, plasma, po, 5 mg/kg
Observable: Cmax (ng/mL)
Entry rule: numbers only, all in ng/mL.

[Q] Data request, read-out Cmax, for Cn1cnc2c(F)c(Nc3ccc(Br)cc3Cl)c(C(=O)NOCCO)cc21
[A] 2970
